- Tested on: mouse cochlea explants with hair cell damage
- ASSAY INFO: Ex vivo hair cell induction assay using 6-day-postnatal mouse cochlea explants with hair cell damage
- Assay type: cell-based
- CONDITION SET: 10 μM; neomycin-damaged P6 Atoh1-GFP mouse cochlea explants; 8 days treatment; Mean ± SD; DMSO control 0
In plain terms, low Response ratio (Response length/full length %), meaning strictly below 60%, gives t, and everything else gives f.

Record excerpt, results attached:
- COMPOUND: "NC(=O)[C@@H](O)CN1CCN(CCCCCNC(=O)c2cc(-c3cccs3)on2)CC1"
  LABEL CLASS: "t"
- COMPOUND: "NC(=O)[C@H](O)CN1CCN(CCCCCNC(=O)c2cc(-c3cccs3)on2)CC1"
  LABEL CLASS: "t"
- COMPOUND: "NC(=O)[C@@H]1CN(CCCCCNC(=O)c2cc(-c3cccs3)on2)CC[C@H]1O [35 trans]"
  LABEL CLASS: "f"
- COMPOUND: "NC(=O)C(O)CN1CCN(CCCCCNC(=O)c2cc(-c3cccs3)on2)CC1 (stereo not drawn)"
  LABEL CLASS: "t"

Q: Dear reviewer, please state whether NC(=O)C1CN(CCCCCNC(=O)c2cc(-c3cccs3)on2)CC1O (single isomer, unassigned) [33 peak 1] has Response ratio (Response length/full length %) strictly beneath 60%.
A: f
